Reported EC50 values for a set of binders
target: T1, rhesus c-Met on 4MBr-5 cells (rhesus, UniProt F7H1K4 25-1381, Natural c-Met is cleaved at the furin site (KRKKR/S) into disulphide-linked alpha and beta subunits; given here as one mature polypeptide.); assay: flow cytometry, 4MBr-5 cells pre-incubated with 50 ng/mL HGF
T1 construct: also called rhesus c-Met antigen
T1 sequence (F7H1K4 entry or part of it limits assumed): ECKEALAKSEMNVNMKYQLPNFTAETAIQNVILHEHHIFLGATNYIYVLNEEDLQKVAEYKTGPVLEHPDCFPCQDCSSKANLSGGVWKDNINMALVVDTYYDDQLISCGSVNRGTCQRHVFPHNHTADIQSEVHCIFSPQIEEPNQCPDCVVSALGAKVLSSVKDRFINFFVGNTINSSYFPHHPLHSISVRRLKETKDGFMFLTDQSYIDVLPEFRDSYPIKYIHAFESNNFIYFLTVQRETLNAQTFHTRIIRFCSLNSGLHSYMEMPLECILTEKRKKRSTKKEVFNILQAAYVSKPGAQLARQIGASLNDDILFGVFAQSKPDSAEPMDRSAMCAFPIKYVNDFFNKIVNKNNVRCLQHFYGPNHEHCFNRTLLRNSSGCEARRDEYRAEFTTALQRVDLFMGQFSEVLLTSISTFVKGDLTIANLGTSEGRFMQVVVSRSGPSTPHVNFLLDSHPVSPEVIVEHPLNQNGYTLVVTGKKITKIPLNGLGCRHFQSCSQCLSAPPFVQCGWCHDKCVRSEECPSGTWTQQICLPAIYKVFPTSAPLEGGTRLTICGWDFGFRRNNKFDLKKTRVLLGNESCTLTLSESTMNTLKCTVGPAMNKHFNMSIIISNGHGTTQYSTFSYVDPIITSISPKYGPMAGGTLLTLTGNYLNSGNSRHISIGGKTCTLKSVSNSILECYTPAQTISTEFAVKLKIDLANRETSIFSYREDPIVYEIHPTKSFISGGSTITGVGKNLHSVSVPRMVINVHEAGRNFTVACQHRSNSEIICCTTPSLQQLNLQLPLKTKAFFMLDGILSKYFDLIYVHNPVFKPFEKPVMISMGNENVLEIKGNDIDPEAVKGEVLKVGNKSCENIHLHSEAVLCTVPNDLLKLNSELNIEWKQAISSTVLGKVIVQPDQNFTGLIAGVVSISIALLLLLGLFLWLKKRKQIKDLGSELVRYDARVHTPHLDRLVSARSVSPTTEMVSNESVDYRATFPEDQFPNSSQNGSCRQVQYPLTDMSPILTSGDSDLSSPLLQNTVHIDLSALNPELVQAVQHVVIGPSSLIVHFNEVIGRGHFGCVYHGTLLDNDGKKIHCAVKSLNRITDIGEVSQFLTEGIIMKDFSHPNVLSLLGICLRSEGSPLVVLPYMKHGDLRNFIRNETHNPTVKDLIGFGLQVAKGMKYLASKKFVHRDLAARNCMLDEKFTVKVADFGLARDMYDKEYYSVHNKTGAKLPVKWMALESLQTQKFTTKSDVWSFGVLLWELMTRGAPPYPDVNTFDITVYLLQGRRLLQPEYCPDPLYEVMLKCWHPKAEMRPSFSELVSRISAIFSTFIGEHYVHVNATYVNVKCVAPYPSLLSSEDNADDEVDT
Kindly answer with a numeric value in µg/mL, unit omitted.

Completed entries (count: 2):
Entry mAb1a (antibody, human IgG1, kappa, V domains shown, Humanized IgG1 kappa, HC-41C, from wt/41C-chi-mAb1; also called humanized HC-41C antibody mAb1a; mAbla) VH: QVQLVQSGAEVKKPGASVKVSCKASGYIFTDYFMNWVRQACGQGLEWMGRVNPKNGDITYNQKFRGRVSLTKDTSINTAYMELSGLTSDDTAIYYCAYDGYYDGMDFWGQGTSVTVSS VL: ELVMTQSPSSLSASVGDRVTITCRANSSVSSNFLHWYQQKPGKAPKLLISSTSNLAFGVPSRFSGTGSGTDFSLTISSLQPEDFAIYYCHQYSGHPFTFGQGTKLEIKR ; EC50 = 0.08

// EC50 value for mAb2a (antibody, human IgG1, kappa, V domains shown, Humanized IgG1 kappa, HC-41C, from wt/41C-chi-mAb2; also called humanized HC-41C antibody mAb2a) VH: QVQLVQSGAELRKPGSSVKVSCRASGYVFPDYEMHWVRQACGQGLEWMGAFDPETGDTTYNQNFKGRVTIAADKSTSTAYMELRSLRSEDTAIYYCARDYKYLYYYAMDNWGQGTMVTVSS VL: EIVLTQSPSLLSASIGDRVTIPCTASSSITSSYLHWYQQKPGKAPKLLIYSTTNLASGVPSRFSGSGSGTEFTLTISSLQPEDFATYYCHQYRRSPLTFGGGTKLEIKR : 0.09

Now take the following binder into account.
Per the record, mAb3b (antibody, human IgG1, kappa, V domains shown, Humanized IgG1 kappa, HC-41C, from wt/41C-chi-mAb3; also called humanized HC-41C antibody mAb3b) VH: QVQLVQSGAEVKKPGASVKVSCKASGYTFTDYYLNWVRQACGQGLEWMGLIFPGNDKTEYSEKFKGRVTLTTDTSISTAYMELSSLTSDDTALYYCSGGDYGGFVYWGQGTLVTVSS VL: DIQMTQSPSSLSASVGDRVTISCGASENIYGALNWYQQQPGKAPKVLIFGATNLADGVPSRFSGSGSGTDFTLTISSLQPEDFATYYCQNVLSSPLTFGQGTKLEIKR has EC50 of 0.04
